Taken from PubChem BioAssay (NCI).

Below, each of the molecules is paired with its reported growth value.
System: K-562 leukemia
Experiment Summary: NCI-60 one-dose screen, 48 h (100 = growth as untreated, 0 = no growth, -100 = all killed)
Condition Set: 10 µM unless noted
This is part of a sample that, as a whole, favours compounds with a hit. Of some 83,000 tested, about 20% had one in any assay. Activity calls are given as the source filed them. How the source made its calls: active means growth percent below 10; inactive means the rest.

Below: 10 molecules and their reported growth.
Request: What measured growth goes with `COc1cc(OC)c2c(c1)c1nc3cc(C)c(C)cc3nc1n2CCN(C)C` ?
Response: 78.3% (inactive)

Request: What measured growth goes with `c1cc(N2CCCC2)c2nc(-c3[nH]ncc3Nc3ncnc4[nH]ccc34)[nH]c2c1` ?
Response: 6.25% (active)

Request: What measured growth goes with `Cc1nn(-c2ccc(Cl)cc2)c(=O)n1CCn1cnc2ccccc21` ?
Response: 97.1% (inactive)

Request: What measured growth goes with O=C(NC(Cc1cn(Cc2ccccc2)cn1)C(=O)O)OCC1c2ccccc2-c2ccccc21 (stereo unspecified) ?
Response: 88.8% (inactive)

Request: What measured growth goes with `Cc1cc(N2CCCC2)nc(N(CCNc2ccnc3cc(Cl)ccc23)Cc2ccco2)n1` ?
Response: -1.93% (active)

Request: What measured growth goes with COc1cc2ncnc(Nc3ccc(Oc4ccnc(C)c4)c(C)c3)c2cc1NC(=O)CC1CCSS1 (stereo unspecified) ?
Response: -50.9% (active)

Request: What measured growth goes with O=C(c1ccccc1)C(CN1CCOCC1)c1ccccc1 (stereo unspecified) ?
Response: 7.04% (active)

Request: What measured growth goes with `N=c1c(S(=O)(=O)c2ccccc2)cc2c(=O)n3ccccc3nc2n1C1CCCC1` ?
Response: 76.6% (inactive)

Request: What measured growth goes with `Cc1ccc2oc(=O)cc(-c3sc(N4CCCCC4)nc3-c3ccccc3)c2c1` ?
Response: 97.8% (inactive)

Request: What measured growth goes with `CNC(=O)c1cc(Oc2ccc3nc(NC(=O)Nc4ccc(Cl)cc4)sc3c2)ccn1` ?
Response: 65.6% (inactive)

Continuing:
Request: What measured growth goes with `Cn1cc(-c2csc(-c3cn(CCN)c4ccccc34)n2)c2cccnc21` ?
Response: -44.3% (active)

Request: What measured growth goes with `Cc1cc(N2CCCCC2)nc(N(CCNc2ccnc3cc(Cl)ccc23)Cc2ccco2)n1` ?
Response: 2.04% (active)

Request: What measured growth goes with `Cc1ccc(N(CC(=O)Nc2ccc(S(=O)(=O)NC3CCN(C)CC3)cc2)S(=O)(=O)c2ccc(Cl)cc2)cc1` ?
Response: 19.5% (inactive)

Request: What measured growth goes with `O=P(O)(c1ccccc1)c1ccccc1I` ?
Response: 93.8% (inactive)

====

Test system: SF-295 CNS
Experiment Summary: NCI-60 one-dose screen, 48 h (100 = growth as untreated, 0 = no growth, -100 = all killed)
Condition Set: 10 µM unless noted
This is part of a sample that, as a whole, favours compounds with a hit. Of some 83,000 tested, about 20% had one in any assay. The source made the active and inactive calls. Rule for the calls: active = growth percent below 10; inactive = the rest.
Readout: growth

Below: 3 compounds and their reported growth.
Request: What measured growth goes with `CCCCCCCC(=O)SCC/C=C/[C@@H]1CC(=O)NCc2cccc(n2)CN(Cc2ccc(Cl)cc2)CC(=O)N[C@@H](C(C)C)C(=O)O1` ?
Response: -68.2% (active)

Request: What measured growth goes with `c1cnc2[nH]cc(-c3csc(-c4cn(CCCN5CCCCC5)c5ccccc45)n3)c2c1` ?
Response: 88.8% (inactive)

Request: What measured growth goes with `O=C(N/N=C\c1ccccc1O)C1CC1` ?
Response: 110% (inactive)

Continuing:
Request: What measured growth goes with `COC(=O)[C@]12CC[C@@H](C)[C@H](C)[C@@H]1C1=CC(=O)[C@@H]3[C@@]4(C)C[C@@H](O)[C@H](O)[C@@]5(C)COC(=C45)C[C@@]3(C)[C@]1(C)CC2` ?
Response: 61.3% (inactive)

Request: What measured growth goes with `CC1(n2nnnc2N2CCCN(c3ncccc3N)CC2)CCC1` ?
Response: 95.5% (inactive)

Request: What measured growth goes with `Cc1cc(Cl)nc(N(CCCNc2ccnc3cc(Cl)ccc23)Cc2ccco2)n1` ?
Response: 20.6% (inactive)

Request: What measured growth goes with `Cn1cc(-c2csc(-c3c[nH]c4ccccc34)n2)c2cccnc21` ?
Response: 6.62% (active)

Request: What measured growth goes with `C=C1C(=O)O[C@H]2[C@H]1CC/C(COC(=O)NCCc1c[nH]c3ccccc13)=C\CC[C@@]1(C)O[C@@H]21` ?
Response: 83.4% (inactive)

Request: What measured growth goes with `C#CCn1c2c(c3ccccc31)C[C@]1(C)[C@H]3CC[C@@H]4[C@@H]5C(=CCC[C@H]5C(=C)C)CC[C@@]4(C)[C@]3(C)CC[C@H]1C2(C)C` ?
Response: 107% (inactive)

Request: What measured growth goes with `Cn1cccc1/C=C1/SC(=S)N(CCc2ccc(O)cc2)C1=O` ?
Response: 37.6% (inactive)

Request: What measured growth goes with `CN1CCN(CCOc2ccc(-c3cnc4c(-c5cccc(F)c5)cnn4c3)cc2)CC1` ?
Response: 79.6% (inactive)
